Recorded ELISA luminescence signal at 10 nmol/L peptide, relative to SEQ ID NO: 47 (=1) by entry
# system: T1, Recombinant Human FGFR2 alpha (IIIc) Fc Chimera Protein, CF (R&D systems, 712-FR-050) (human, UniProt P21802 22-377)
# T1 construct: bought; not shown: Fc part of the chimera
# T1 sequence (P21802 22-377, change not shown): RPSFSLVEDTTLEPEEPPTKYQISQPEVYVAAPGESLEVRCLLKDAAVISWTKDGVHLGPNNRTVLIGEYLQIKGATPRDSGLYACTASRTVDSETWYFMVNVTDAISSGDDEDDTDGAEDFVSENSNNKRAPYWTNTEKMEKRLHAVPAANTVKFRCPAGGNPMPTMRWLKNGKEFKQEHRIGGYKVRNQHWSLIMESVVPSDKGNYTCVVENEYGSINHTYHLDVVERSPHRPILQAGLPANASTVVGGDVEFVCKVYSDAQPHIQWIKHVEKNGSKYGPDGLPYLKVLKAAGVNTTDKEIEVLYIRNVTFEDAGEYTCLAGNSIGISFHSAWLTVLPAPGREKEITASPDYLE
# measurement.notes: ELISA on plate-bound FGFR2-Fc
Bridge positions count the residues as written; N and C are the ends. Ends that are not written are not given here. COCH2 = acetyl group that carries the bridge
observed.property: ELISA luminescence signal at 10 nmol/L peptide, relative to SEQ ID NO: 47 (=1)

| binder | result |
| --- | --- |
| YCEENWLDPEQYQYFIYFK(COCH2)Y (thioether 2-19 (inferred)) [cyclic peptide SEQ ID NO: 188] | ≥ 0.7 ratio |
| YCSENYLDPEQYQYFIYFK(COCH2)Y (thioether 2-19) [cyclic peptide SEQ ID NO: 161] | ≥ 0.7 ratio |
| NCPQNFINPVQWRYFQHYK(COCH2)N (thioether 2-19 (inferred)) [cyclic peptide SEQ ID NO: 79] | ≥ 0.7 ratio |
| YCEENYLDPEQYDYFIYFK(COCH2)Y (thioether 2-19 (inferred)) [cyclic peptide SEQ ID NO: 267] | ≥ 0.7 ratio |
| ECDQAQQVYALIYRYLYQLQK(COCH2)V (thioether 2-21 (inferred)) [cyclic peptide SEQ ID NO: 428] | 0.1 to 0.5 ratio |
| VCQEYYLYQYVYELK(COCH2)Y (thioether 2-15) [cyclic peptide SEQ ID NO: 381] | 0.1 to 0.5 ratio |
| YCEENYLMPEQYQYFIYFK(COCH2)Y (thioether 2-19) [cyclic peptide SEQ ID NO: 352] | ≥ 0.7 ratio |

Numbers sourced from patent US20260008815A1.
